molecular target: Megasphaera elsdenii flavodoxin (apoflavodoxin) (Megasphaera elsdenii, UniProt P00321, C127V/C54A/F36V/F70L/F71L/F86V/M120V/M16L/M57V/M97L/W100V/W7V/W91V/W96V/Y6V/Y89V); construct: synthetic gene in pET28b(+) NdeI/BamHI, 6xHis tag kept, E. coli BL21(DE3); apoprotein by trichloroacetic acid; assay: calculated from Kd,ox and redox potential Em, […] (anaerobic dithionite titration with redox dyes); format: binding; details: read-out: Kd,hq
Sequence (P00321 other isoform, or with tags, fused parts or gaps with the stated changes): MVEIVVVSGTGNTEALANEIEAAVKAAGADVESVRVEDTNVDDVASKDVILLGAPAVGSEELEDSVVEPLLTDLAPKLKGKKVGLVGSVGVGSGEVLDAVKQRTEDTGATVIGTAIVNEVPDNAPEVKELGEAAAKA
TEST_READOUT: Kd (mM)

ENTRY_SMILES: Cc1cc2c(cc1C)N(C[C@H](O)[C@H](O)[C@H](O)COP(=O)(O)O)c1[nH]c(=O)[nH]c(=O)c1N2
RECORDED_VALUE: 43.6
